# Lookup of reported IC50 keyed by entry
Molecular target: HLA-DQ8 (Homo sapiens, UniProt P01909+P01920, A209T/A45G/C70Q/D89A/DUP78-78/E183D/E77G/F237L/G63E/H199R/I129T/K197E/L178F/L74F/L98V/Q57E/Q76R/S185I/S97I/T217I/T49S/V73L/Y58L)
Experiment: MHC class II binding competition assay with radiolabeled probe peptide
Conditions: competition with MHC class II bound radiolabeled probe peptide, purified MHC, 2-4 days incubation
Where no end group is shown, it is not given here.

>  <POLYMER_SEQUENCE>
QQSPFPEQEQQHQQL [SEQ ID NO: 183]

>  <IC50>
39.9 µM

$$$$
>  <POLYMER_SEQUENCE>
QQSPFSRQEKSPFSQ [SEQ ID NO: 78]

>  <IC50>
> 40 µM

$$$$
>  <POLYMER_SEQUENCE>
QSPFSRQQKSPFSQQ [SEQ ID NO: 80]

>  <IC50>
> 40 µM

$$$$
>  <POLYMER_SEQUENCE>
QQPPFPRQHQQFPQQ [SEQ ID NO: 74]

>  <IC50>
> 40 µM

$$$$
>  <POLYMER_SEQUENCE>
QQPPFSHQRPPFSQQ [SEQ ID NO: 70]

>  <IC50>
39.1 µM

$$$$
>  <POLYMER_SEQUENCE>
QPPDSHQQHSPGSQQ [SEQ ID NO: 84]

>  <IC50>
> 40 µM

$$$$
>  <POLYMER_SEQUENCE>
GPPFSKQTEPVISQQ [SEQ ID NO: 186]

>  <IC50>
38.2 µM

$$$$
>  <POLYMER_SEQUENCE>
QGPPFSKQTQPVIPQ [SEQ ID NO: 72]

>  <IC50>
> 40 µM

$$$$
>  <POLYMER_SEQUENCE>
QPPSSEQQHSPPSQQ [SEQ ID NO: 81]

>  <IC50>
31.9 µM

$$$$
>  <POLYMER_SEQUENCE>
QQPFPEQQRSQFSQQ [SEQ ID NO: 85]

>  <IC50>
35.8 µM

$$$$
>  <POLYMER_SEQUENCE>
QPSFSRQQKQPQSQQ [SEQ ID NO: 86]

>  <IC50>
> 40 µM

$$$$
>  <POLYMER_SEQUENCE>
QQPPFSKQEQQQPIL [SEQ ID NO: 71]

>  <IC50>
29.8 µM

$$$$
>  <POLYMER_SEQUENCE>
QQPPDSHQEHSPGPQ [SEQ ID NO: 187]

>  <IC50>
> 40 µM

$$$$
